Reported % inhibition of SMAD7 mRNA expression is given for each of the following substances.
System: human SMAD7 mRNA
Assay: Antisense inhibition of human SMAD7 mRNA expression in Hep3B cells by 3-10-3 cEt gapmers, 10,000 nM, electroporation (Example 2)
Assay type: cell-based
Settings: Hep3B cells, electroporation with 10,000 nM antisense oligonucleotide, approximately 24 hours, primer probe set RTS5062, relative to untreated control cells
Method: Antisense oligonucleotides were designed to target human SMAD7 mRNA and were tested for their effects on SMAD7 mRNA expression in vitro. […] After a treatment period of approximately 24 hours, RNA was isolated from the cells and SMAD7 mRNA levels were measured by quantitative real-time PCR. […] SMAD7 mRNA levels were adjusted according to total RNA content, as measured by RIBOGREEN®. […]
Strand notation (5' to 3'): a small letter for the sugar, then the base; units joined by * are phosphorothioate-linked, units joined directly phosphodiester-linked; [ ] holds rarer units or linkages, { } end groups; capitals alone tell only the bases. k = constrained ethyl (cEt); [5mC] = 5-methylcytosine; d = 2'-deoxy (DNA)
Give the value in % but do not write % after it.

### Prompt Give reported % inhibition of SMAD7 mRNA expression value for 799418 (antisense kG*kT*kA*dA*dA*dT*dG*dG*dT*d[5mC]*d[5mC]*dA*dT*kG*kT*kA) [compound 799418]
### Response 12

### Prompt Identify the reported % inhibition of SMAD7 mRNA expression for the following entry. 799202 (antisense kT*kT*kT*dT*dT*dT*dT*d[5mC]*dA*dG*dG*dA*dG*kT*k[5mC]*k[5mC]) [compound 799202]
### Response 33

### Prompt Consider the substance 799416 (antisense kA*kA*kG*dA*d[5mC]*d[5mC]*dT*dG*dG*dG*dT*d[5mC]*dA*kG*k[5mC]*kG) [compound 799416] and give its recorded % inhibition of SMAD7 mRNA expression.
### Response 41

### Prompt Respond only with % inhibition of SMAD7 mRNA expression recorded for 798970 (antisense kT*k[5mC]*k[5mC]*dT*dG*d[5mC]*d[5mC]*dG*dA*dT*d[5mC]*dA*dT*kA*k[5mC]*k[5mC]) [compound 798970]
### Response 41

### Prompt Return reported % inhibition of SMAD7 mRNA expression. Input substance: 799422 (antisense kG*kA*kT*dT*dT*dT*dA*dA*d[5mC]*dA*dG*dT*dT*kG*kT*k[5mC]) [compound 799422]
### Response 33

* * *

experiment: Body and organ weights after oral gavage in CD-1 mice (Example 7); format: in vivo; conditions: 500 mg/kg oral gavage once daily for 4 weeks, end of study
Measured Heart weight values are reported for all entries that follow.
// note: answer is a bare numeric in g

Look over these answered cases.
>>> print(df.to_string())
                                  substance  result_value
0  830037 (antisense CTATTGGCTGATCTGG; 3-10-3 cEt gapmer, further chemistry not given here) [compound 830037]          0.17
1  829994 (GGAGGCAGGGCCGCGA; 3-10-3 cEt gapmer, further chemistry not given here) [compound 829994]          0.18
2  798781 (CGTAAGATTCACAGCA; 3-10-3 cEt gapmer, further chemistry not given here) [compound 798781]          0.17
3  830025 (antisense TTTGTAAATCGAAAGC; 3-10-3 cEt gapmer, further chemistry not given here) [compound 830025]          0.17
4  790615 (CCAATGAGAATGCTTC; 3-10-3 cEt gapmer, further chemistry not given here) [compound 790615]          0.17

Now take the following substance into account.
### Prompt Please report the measured Heart weight for 830121 (AGAATCAAGCCCTGGC; 3-10-3 cEt gapmer, further chemistry not given here) [compound 830121]
### Response 0.17

* * *

tested on: murine Smad7 mRNA; test: Dose-dependent inhibition of murine Smad7 mRNA in bEND cells, electroporation (Example 5, Study 2); format: cell-based, mouse; details: 0.74 μM, electroporation, approximately 16 hours
Metric: % inhibition of SMAD7 mRNA expression
Write the quantity with the unit trailing the number.

>>> df
                                  substance  measurement_target  result_value
0  798781 (CGTAAGATTCACAGCA; 3-10-3 cEt gapmer, further chemistry not given here) [compound 798781]   murine Smad7 mRNA            0%
1  830037 (antisense CTATTGGCTGATCTGG; 3-10-3 cEt gapmer, further chemistry not given here) [compound 830037]   murine Smad7 mRNA            6%

### Prompt Give recorded % inhibition of SMAD7 mRNA expression. 830121 (AGAATCAAGCCCTGGC; 3-10-3 cEt gapmer, further chemistry not given here) [compound 830121]
### Response 6%

* * *

Tested on: human SMAD7 mRNA
Test: Antisense inhibition of human SMAD7 mRNA expression in Hep3B cells by 5-10-5 MOE gapmers, single concentration, electroporation, RT-PCR (Example 1, Study 1 and 2)
Assay type: cell-based
Details: electroporation with 15,000 nM antisense oligonucleotide (Study 2), 5-10-5 MOE gapmers targeting SEQ ID NO: 1 and 2
Procedure: Antisense oligonucleotides were designed to target human SMAD7 mRNA and were tested for their effects on SMAD7 mRNA expression in vitro. […] After a treatment period of approximately 24 hours, RNA was isolated from the cells and SMAD7 mRNA levels were measured by quantitative real-time PCR. […] SMAD7 mRNA levels were adjusted according to total RNA content, as measured by RIBOGREEN®. […]
Strand notation (5' to 3'): a small letter for the sugar, then the base; units joined by * are phosphorothioate-linked, units joined directly phosphodiester-linked; [ ] holds rarer units or linkages, { } end groups; capitals alone tell only the bases. e = 2'-O-(2-methoxyethyl) (MOE); [5mC] = 5-methylcytosine; d = 2'-deoxy (DNA)
Listing of entries alongside the reported % Inhibition of SMAD7 mRNA.
Reply with just the number (in %).

Some solved cases for reference:
Substance	Units	Result value
771473 (antisense eA*eG*e[5mC]*e[5mC]*eG*dA*dT*dT*dT*dT*dG*d[5mC]*dT*d[5mC]*d[5mC]*eG*e[5mC]*eA*e[5mC]*e[5mC]) [compound 771473]	%	37
771688 (antisense e[5mC]*eG*eT*eT*eT*dA*dA*dT*dG*dG*dA*dA*d[5mC]*dA*dT*eA*eA*eA*e[5mC]*eT) [compound 771688]	%	13
771624 (antisense eT*eT*eA*eA*e[5mC]*dA*d[5mC]*dA*d[5mC]*dA*dG*dG*dA*dT*dG*eG*eG*eA*eG*e[5mC]) [compound 771624]	%	27
771736 (antisense eT*eG*e[5mC]*e[5mC]*eA*dG*dA*dT*d[5mC]*dT*d[5mC]*dA*dG*dG*dT*e[5mC]*eA*eA*eG*eA) [compound 771736]	%	34
771944 (antisense eG*eG*eT*eA*eA*dT*dT*dT*dT*d[5mC]*d[5mC]*dT*d[5mC]*dA*dA*e[5mC]*eA*eG*eG*e[5mC]) [compound 771944]	%	50

### Prompt Given 771712 (antisense eA*eT*eT*e[5mC]*eT*dT*dT*dT*dA*dG*d[5mC]*d[5mC]*d[5mC]*dA*dA*e[5mC]*eT*eG*eT*eT) [compound 771712] , respond with its % Inhibition of SMAD7 mRNA.
### Response 27

### Prompt Complete the entry with % Inhibition of SMAD7 mRNA for 771481 (antisense eG*e[5mC]*eA*eG*eG*d[5mC]*dT*dG*dT*dA*d[5mC]*dG*d[5mC]*d[5mC]*dT*eT*e[5mC]*eT*e[5mC]*eG) [compound 771481]
### Response 26

### Prompt Note % Inhibition of SMAD7 mRNA for the substance shown: 771856 (antisense e[5mC]*eT*eG*eA*eA*dA*dG*dA*dA*dA*dG*dT*d[5mC]*d[5mC]*d[5mC]*eG*eA*e[5mC]*eT*eT) [compound 771856]
### Response 35

### Prompt Assign % Inhibition of SMAD7 mRNA to the following record: 771656 (antisense eG*eT*eT*eA*eA*dA*dG*dT*d[5mC]*dT*dA*dA*dA*d[5mC]*dA*eT*eG*e[5mC]*eT*e[5mC]) [compound 771656]
### Response 35

### Prompt Consider the substance 771640 (antisense eG*eG*eT*eG*eT*d[5mC]*dA*dG*d[5mC]*d[5mC]*dT*dA*dG*dG*dA*eT*eG*eG*eT*eA) [compound 771640] . State its measured % Inhibition of SMAD7 mRNA.
### Response 35

### Prompt Provide % Inhibition of SMAD7 mRNA value for the following substance: 771465 (antisense eA*eT*e[5mC]*e[5mC]*eA*dG*dA*dG*dA*dG*dG*dG*d[5mC]*dT*d[5mC]*e[5mC]*eT*eG*eG*eA) [compound 771465]
### Response 16

Just for reference, patent US10517889B2 is where these values come from.
